test system: Rattus norvegicus; test: Antihyperglycemic activity in sucrose loaded albino Sprague-Dawley rat model assessed as improvement of glucose tolerance by measuring reduction in glucose AUC at 100 mg/kg, po administered 30 mins prior to sucrose load measured for 2 hrs by oral sucrose tolerance test; type: functional; design: scale not given: the % may be the effect or the level left
Exercise: for every item that follows, state its recorded Activity.
Answers are plain numbers, in %.

The examples below pair each entry with its known result.
compound="Cc1ccc(-c2nn(-c3ccccc3)cc2/C=N\\N=C2\\NC(=O)C(CC(=O)O)S2)cc1 (configuration not stated)" recorded_measurement=6.09
compound="O=C(O)CC1S/C(=N\\N=C/c2cn(-c3ccccc3)nc2-c2ccc(O)cc2)NC1=O (configuration not stated)" recorded_measurement=7.97
compound="O=C(O)CC1S/C(=N\\N=C/c2cn(-c3ccccc3)nc2-c2ccc([N+](=O)[O-])cc2)NC1=O (configuration not stated)" recorded_measurement=7.57
compound="O=C(O)CC1S/C(=N\\N=C/c2cn(-c3ccccc3)nc2-c2ccc(Br)cc2)NC1=O (configuration not stated)" recorded_measurement=5.69

Batch lookup, Activity per entry.
1. O=C(O)CC1S/C(=N\N=C/c2cn(-c3ccccc3)nc2-c2ccc(F)cc2)NC1=O (configuration not stated)
2. COc1ccc(-c2nn(-c3ccccc3)cc2/C=N\N=C2\NC(=O)C(CC(=O)O)S2)cc1 (configuration not stated)
3. CN(C)C(=N)NC(=N)N [METFORMIN]

7.64
6.97
14.1
